- Tested on: RXF 393 renal
- assay-text: NCI tumour cell line growth inhibition, 48 h; in the data active = GI50 below about 0.43 µM; inactive = the rest
Hi! Could you answer with just one of these? y for active, n for inactive

For orientation, consider the following solved cases.
{"compound": "O=C(Nc1ccc(Cl)cc1F)c1ccccc1O", "assigned-class": "n"}
{"compound": "O=C(Nc1nc2ccc(C(F)(F)F)cc2s1)c1cc(Cl)ccc1O", "assigned-class": "n"}
{"compound": "Cc1cc(I)cc(CN(C)CCCN2CCCCCCC2)c1O", "assigned-class": "n"}
{"compound": "COc1ccc(C(C)=O)cc1N1C(=O)C2C(C1=O)C1(c3ccccc3)C(=O)C2(c2ccccc2)C(c2ccc(C)cc2)=C1c1ccc(C)cc1 (stereo not given)", "assigned-class": "n"}

Could you kindly confirm the outcome this assay logged for O=C1NC(=O)C(c2cnc3ccccn23)=C1c1cn2c3c(cc(F)cc13)CN(C(=O)N1CCCCC1)CC2 ? y

----------
Form field: TGI (one value per entry).
- Test system: RXF-631 renal
- assay-text: NCI tumour cell line growth inhibition, 48 h

Some solved entries appear below for comparison.
{"compound": "NNC(=S)N/N=C(\\CC1OC(=O)c2ccccc21)c1ccccc1O (stereo not given)", "TGI": "> 100 µM"}
{"compound": "CN(C)/C=N/c1nc2c(ncn2C2OC(CO)C(O)C2O)c(=O)[nH]1 (stereo not given)", "TGI": "> 100 µM"}
{"compound": "CC(=O)c1cccc(NC(=O)C(=O)NNc2n[nH]c(=S)n2N)c1", "TGI": "10.9 µM"}
{"compound": "Cc1ccc(Cc2c(=O)[nH]nc3ccccc23)cc1", "TGI": "> 100 µM"}
{"compound": "COc1cccc(/C=C/c2cc(OC)c(OC)c(OC)c2)c1", "TGI": "> 100 µM"}
{"compound": "S=C1NC2(CCCCCC2)NN1c1ccccc1", "TGI": "> 100 µM"}
{"compound": "O=c1[nH]c(=O)n(C2OC(CO)C(O)C2O)cc1NN=NCc1ccccc1 (stereo not given)", "TGI": "> 100 µM"}
{"compound": "COc1ccc2c3c([nH]c2c1[N+](=O)[O-])C(C)=NCC3", "TGI": "> 100 µM"}

// lookup TGI for Cc1cc([N+](=O)[O-])ccc1Nc1cccc(Cl)c1C 31.3 µM

Item Cc1nn(-c2ccccc2)c2nc(N3CCOCC3)nnc12 has what recorded TGI? > 100 µM

----------
- System: DU-145 prostate
- assay-text: NCI tumour cell line growth inhibition, 48 h
Below, each entry is listed alongside its reported GI50.

Some entries whose results are on file:
{"smiles-representation": "O=C(Cc1ccc(/C=C/C(=O)c2ncc[nH]2)cc1)Nc1cc(F)c(F)c(F)c1", "quantity-name": "GI50", "recorded-result": "3.37 µM"}
{"smiles-representation": "CC(C)c1ccc2c(c1)CC[C@@H]1[C@@](C)(C(=O)O)CCC[C@]21C", "quantity-name": "GI50", "recorded-result": "4.39 µM"}
{"smiles-representation": "CC(C)=CC/C=C(/C)[C@H]1CC[C@]2(C)[C@@H]1CC[C@@H]1[C@@]3(C)CCCNC(C)(C)[C@@H]3CC[C@]12C", "quantity-name": "GI50", "recorded-result": "2.08 µM"}

Fill in: GI50 of COc1ccc(/C=C(/C(=O)N2CCN(c3ccccc3)CC2)c2cc(OC)c(OC)c(OC)c2)cc1O is ___ 0.451 µM

Quick one: GI50 for C=COCCCOc1ccccc1 ? > 100 µM
